Experiment: Cytotoxicity (resazurin) growth inhibition assay
Assay type: cell-based
Conditions: human
Quantity Kind: IC50 at 72 h (µM)
Answer in µM, number only, no unit symbol.

// query Dear colleague, I am looking for the recorded IC50 at 72 h of the following compound: Cc1cc(Cc2cc(C)cc(C(C)(C)C)c2O)c(O)c(C(C)(C)C)c1 [compound 4]
// result 17.4

* * *

Test: Cytotoxicity (resazurin) growth inhibition assay
Assay type: cell-based
Settings: human; 72 h, resazurin, mean ± SD of three independent experiments; read-out: IC50
Quantity Kind: IC50 at 72 h (µM)
Answer in µM, number only, no unit symbol.

// query Dear colleague, I am looking for the recorded IC50 at 72 h of the following compound: O=C(OC1CCCCC1)c1ccccc1C(=O)OC1CCCCC1 [compound 1, dicyclohexyl phthalate]
// result 72.7

* * *

Test: Cytotoxicity (resazurin) growth inhibition assay
Type: cell-based
Conditions: human, CYP3A4-overexpressing HepG2 cells; 72 h, resazurin, mean ± SD of three independent experiments; read-out: IC50
Quantity Kind: IC50 at 72 h
Value and unit, in that order.

// query Dear colleague, I am looking for the recorded IC50 at 72 h of the following compound: CC(C)(C)CC(C)(C)c1ccc(O)c(-n2nc3ccccc3n2)c1 [compound 3, octrizole]
// result 63.8 µM

// query Dear colleague, I am looking for the recorded IC50 at 72 h of the following compound: Cc1cc(Cc2cc(C)cc(C3CCCCC3)c2O)c(O)c(C2CCCCC2)c1 [compound 6]
// result 18 µM

// query Dear colleague, I am looking for the recorded IC50 at 72 h of the following compound: CC(c1cc(C(C)(C)C)cc(C(C)(C)C)c1O)c1cc(C(C)(C)C)cc(C(C)(C)C)c1O [compound 5]
// result 20 µM
